# Test system: P. falciparum 3D7 growth, pLDH absorbance
# protocolText: blood-stage malaria parasite growth potency – strain 3D7, dose response (AID 2305)
A collection of compounds and their measured IC50
A number alone suffices; assume nM.

Record excerpt, results attached:
Cc1ccc(NC(=O)c2ccc(NCCCN3CC(C)CC(C)C3)c([N+](=O)[O-])c2)cc1F (configuration not stated) | 710
CCN(CC)CCCC(C)Nc1c(-c2ccc(Br)cc2)cnc2ccccc12 (configuration not stated) | 700
COc1ccc(CN2CCCC(C(=O)c3ccc(C(F)(F)F)cc3)C2)c(O)c1 (configuration not stated) | 850

stdin: Record CC1=C(C(=O)Nc2cc3cn[nH]c3cc2F)C(c2cccc(NS(C)(=O)=O)c2)CC(=O)N1 (configuration not stated) : what is its IC50 with P. falciparum 3D7 growth, pLDH absorbance?
stdout: 430

stdin: For "COc1cc2c(Nc3cccc(NC(=O)c4ccccc4)c3)ncnc2cc1OCCCN1CCOCC1" then?
stdout: 150

stdin: For "N#Cc1ccc(C(=O)Nc2cccc(-c3ccc(CN4CCCC4)cc3)c2)cc1" then?
stdout: 720

stdin: For "C[C@H](NC(=O)c1c(CN2CCC(N3CCCCC3=O)CC2)c(-c2cccs2)nc2ccccc12)C1CCCCC1" then?
stdout: 900
